Data provenance: patent US20250248973A1

# reported IC50; entries follow
Biological target: Human CB1 Receptor-1 (hCB1) (Homo sapiens (Human))
Sequence (P21554 whole entry): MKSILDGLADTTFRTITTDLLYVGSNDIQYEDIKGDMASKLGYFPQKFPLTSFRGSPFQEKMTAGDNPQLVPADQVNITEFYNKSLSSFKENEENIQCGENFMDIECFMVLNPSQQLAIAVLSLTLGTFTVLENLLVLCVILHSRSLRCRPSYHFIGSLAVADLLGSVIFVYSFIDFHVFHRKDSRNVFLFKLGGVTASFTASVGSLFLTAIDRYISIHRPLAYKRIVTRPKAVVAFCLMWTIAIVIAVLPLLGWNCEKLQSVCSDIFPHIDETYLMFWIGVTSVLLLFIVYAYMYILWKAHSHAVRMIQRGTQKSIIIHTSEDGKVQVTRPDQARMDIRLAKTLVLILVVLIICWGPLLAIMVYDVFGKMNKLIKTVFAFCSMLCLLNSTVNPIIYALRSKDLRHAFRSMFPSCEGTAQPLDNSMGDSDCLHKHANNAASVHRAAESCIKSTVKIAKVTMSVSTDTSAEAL
Assay: hCB1 Gai cyclic AMP (cAMP) TR-FRET assay, antagonism of EC80 CP55940 with forskolin
Settings: hCB1 cells, 30 min pre-incubation

These solved cases illustrate the format of a correct answer.
Exam item: Report IC50 for `NS(=O)(=O)[C@@H]1CC[C@@H](N/C(=N/S(=O)(=O)c2ccc(Cl)cc2)N2C[C@H](c3ccccc3)C(c3ccc(F)cc3)=N2)C1`
Marked response: 100 to 500 nM

Exam item: Report IC50 for C[C@@H](CS(N)(=O)=O)N/C(=N\S(=O)(=O)c1ccc(Cl)cc1)N1CC(c2ccccc2)C(c2ccc(Cl)cc2)=N1 (stereo in doubt)
Marked response: < 100 nM

Exam item: Report IC50 for `C#Cc1ccccc1S(=O)(=O)N=C(NCCS(N)(=O)=O)N1C[C@H](c2ccccc2)C(c2ccc(Cl)cc2)=N1`
Marked response: 100 to 500 nM

Exam item: Report IC50 for `NS(=O)(=O)CCNC(=NS(=O)(=O)c1ccc(C(F)(F)F)cc1)N1C[C@H](c2ccccc2)C(c2ccc(Cl)cc2)=N1`
Marked response: < 100 nM

Exam item: Report IC50 for `CN(C)S(=O)(=O)CCN/C(=N\S(=O)(=O)c1ccc(F)cc1)N1C[C@H](c2ccccc2)C(c2ccc(F)cc2)=N1`
Marked response: < 100 nM

Exam item: Report IC50 for NS(=O)(=O)[C@H]1CC[C@H](N/C(=N/S(=O)(=O)c2ccc(Cl)cc2)N2C[C@H](c3ccccc3)C(c3ccc(F)cc3)=N2)CC1 (single isomer, unassigned)
Marked response: 100 to 500 nM

Exam item: Report IC50 for NS(=O)(=O)[C@H]1CC[C@H](N/C(=N/S(=O)(=O)c2ccc(Cl)cc2)N2C[C@@H](c3ccccc3)C(c3ccc(Cl)cc3)=N2)CC1 (single isomer, unassigned)
Marked response: 100 to 500 nM

With those in mind, consider the next molecule.
Exam item: Report IC50 for `NS(=O)(=O)CCNC(=NS(=O)(=O)c1ccc(F)cc1)N1C[C@H](c2ccccc2)C(c2ccc(F)cc2)=N1`
Marked response: 100 to 500 nM
